Biological target: Peroxisome proliferator-activated receptor gamma (Homo sapiens)
Sequence (whole entry): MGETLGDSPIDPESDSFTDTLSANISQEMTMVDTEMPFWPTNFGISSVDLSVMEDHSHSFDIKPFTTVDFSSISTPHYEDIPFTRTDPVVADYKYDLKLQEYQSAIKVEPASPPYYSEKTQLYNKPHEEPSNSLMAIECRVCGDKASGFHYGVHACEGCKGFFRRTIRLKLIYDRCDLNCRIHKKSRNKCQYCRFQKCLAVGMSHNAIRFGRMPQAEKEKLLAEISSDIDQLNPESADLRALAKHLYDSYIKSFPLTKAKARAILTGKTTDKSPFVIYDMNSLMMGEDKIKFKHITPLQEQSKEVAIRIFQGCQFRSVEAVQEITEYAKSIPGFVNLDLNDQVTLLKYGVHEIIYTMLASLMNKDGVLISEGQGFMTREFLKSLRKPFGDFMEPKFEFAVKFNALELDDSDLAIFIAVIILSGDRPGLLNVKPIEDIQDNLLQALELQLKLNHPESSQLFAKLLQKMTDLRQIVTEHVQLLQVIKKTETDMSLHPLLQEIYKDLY
Experiment: Agonist activity at PPAR-gamma (unknown origin) expressed in CV-1 cells co-transfected with tk-PPRE-luciferase vector at 10 uM after 24 hrs by transactivation assay relative to rosiglitazone
Type: cell-based
endpointName: Emax (%)

Worked set:
INSERT INTO results (smilesrepr, endpointname, measurement) VALUES
  ('Cc1ccc(COc2ccc(OCCCOc3ccc4c(c3)c(CC(=O)O)cn4Cc3ccccc3)cc2)cc1', 'Emax', 92.6),
  ('Cn1cc(CC(=O)O)c2cc(OCCCOc3cccc(OCc4ccc(Cl)cc4)c3)ccc21', 'Emax', 110),
  ('CC(C)=CCn1cc(CC(=O)O)c2cc(OCCCOc3cccc(OCc4ccc(Cl)cc4)c3)ccc21', 'Emax', 120),
  ('O=C(O)Cc1c[nH]c2ccc(OCCCOc3cccc(OCc4ccc(C(F)(F)F)cc4)c3)cc12', 'Emax', 100),
  ('O=C(O)Cc1cn(Cc2ccccc2)c2ccc(OCCCOc3cccc(OCc4ccc(Cl)cc4)c3)cc12', 'Emax', 100);

[I] Cc1ccc(COc2ccccc2OCCCOc2ccc3c(CC(=O)O)c[nH]c3c2)cc1
[II] O=C(O)Cc1c[nH]c2ccc(OCCCOc3cccc(OCc4ccc(F)cc4)c3)cc12
Inquiry: Quick check, higher Emax between I and II ? Reply with the label of the item you choose.
Reply text: II
(II: 66.9%, I: 19.2%)
